Attribution: patent US7365066B2

Tested System: TGF-beta Type I Receptor Kinase (RIT204D) (Homo sapiens, UniProt P36897, T204D)
Construct: The 6×-HIS tagged cytoplasmic kinase domain of each receptor was expressed and purified from Sf9 insect cell lysates; 6xHis
Sequence (P36897 148-503 T204D limits assumed): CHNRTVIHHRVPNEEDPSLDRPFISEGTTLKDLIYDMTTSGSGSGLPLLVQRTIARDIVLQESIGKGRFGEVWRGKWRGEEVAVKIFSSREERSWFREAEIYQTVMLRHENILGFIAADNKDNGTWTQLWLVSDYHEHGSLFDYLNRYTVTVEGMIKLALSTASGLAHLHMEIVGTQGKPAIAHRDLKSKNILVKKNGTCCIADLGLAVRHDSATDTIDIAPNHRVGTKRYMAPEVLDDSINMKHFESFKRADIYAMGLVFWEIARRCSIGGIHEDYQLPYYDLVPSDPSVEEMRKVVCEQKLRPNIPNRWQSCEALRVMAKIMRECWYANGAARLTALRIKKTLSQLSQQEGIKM
Assay Method Text: TGF-β Type I receptor (RIT204D) in vitro kinase reaction
Experimental Parameters: RIT204D kinase domain, 4 uM ATP, 30° C. for 1 hr; read-out: IC50, inhibition of TGF-beta Type I Receptor Kinase
Readout Label: IC50 (nM)

A: c1ccc(-c2nn3ccccc3c2-c2ccncc2)nc1
B: CCc1cccc(-c2nn3ccccc3c2-c2ccnc3cc(Cl)c(Cl)cc23)n1
Data request: Between A and B , which one has the lower reported IC50 value? Answer with the label corresponding to your selection.
Data returned: B

1: CCCCc1ccc(-c2nn3ccccc3c2-c2ccnc3ccccc23)nc1
2: CCc1cccc(-c2nn3ccccc3c2-c2ccc(F)c3ccccc23)n1
Data request: Between 1 and 2 , which one has the lower reported IC50 value? Answer with the label corresponding to your selection.
Data returned: 1

---

Tested System: TGF-beta Type II Receptor Kinase (RII WT) (Homo sapiens)
Construct: The 6×-HIS tagged cytoplasmic kinase domain of each receptor was expressed and purified from Sf9 insect cell lysates; 6xHis
Sequence (P37173 188-567 limits assumed): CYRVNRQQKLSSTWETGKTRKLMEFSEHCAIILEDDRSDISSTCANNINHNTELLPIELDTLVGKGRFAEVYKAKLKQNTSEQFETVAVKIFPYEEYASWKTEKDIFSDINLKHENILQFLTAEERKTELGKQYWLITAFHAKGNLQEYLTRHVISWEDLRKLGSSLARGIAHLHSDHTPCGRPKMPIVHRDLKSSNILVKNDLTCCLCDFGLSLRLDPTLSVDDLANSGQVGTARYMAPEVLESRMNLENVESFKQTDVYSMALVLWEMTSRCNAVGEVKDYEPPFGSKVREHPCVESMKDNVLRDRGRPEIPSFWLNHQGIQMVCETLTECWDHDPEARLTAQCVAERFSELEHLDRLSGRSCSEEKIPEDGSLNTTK
Assay Method Text: TGF-β Type II receptor (RII WT) in vitro kinase reaction
Experimental Parameters: RII WT kinase domain, 4 uM ATP, 30° C. for 40 min; read-out: IC50, inhibition of TGF-beta Type II Receptor Kinase
Readout Label: IC50 (µM)

1: CCCCc1ccc(-c2nn3ccccc3c2-c2ccnc3ccccc23)nc1
2: CCc1cccc(-c2nn3ccccc3c2-c2ccnc3cc(Cl)c(Cl)cc23)n1
3: CCc1cccc(-c2nn3ccccc3c2-c2ccc(F)c3ccccc23)n1
4: c1ccc(-c2nn3ccccc3c2-c2ccncc2)nc1
Data request: Sort the entries above by IC50, largest first. In plain terms: list the labels in the order you were asked to.
Data returned: 4, 3, 2, 1

---

Tested System: p38α/SAPK2α (Homo sapiens, UniProt Q16539)
Sequence (Q16539 whole entry): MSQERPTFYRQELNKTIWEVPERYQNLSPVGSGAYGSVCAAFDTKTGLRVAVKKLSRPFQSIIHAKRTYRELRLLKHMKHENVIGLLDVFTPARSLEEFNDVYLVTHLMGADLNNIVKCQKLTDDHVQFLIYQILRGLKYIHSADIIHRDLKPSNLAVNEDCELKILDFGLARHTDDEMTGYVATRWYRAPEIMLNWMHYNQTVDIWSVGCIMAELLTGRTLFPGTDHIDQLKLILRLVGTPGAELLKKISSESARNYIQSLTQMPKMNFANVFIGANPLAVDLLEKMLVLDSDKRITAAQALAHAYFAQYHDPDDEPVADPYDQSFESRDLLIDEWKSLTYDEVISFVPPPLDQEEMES
Assay Method Text: p38α in vitro kinase assay
Experimental Parameters: 5 nM p38α, 62.5 uM EGFR substrate, 100 uM ATP, 30° C. for 40 min
pIC50: −log10 of the molar value.
Readout Label: pIC50

[[record]]
compound_structure_string = "Cc1cccc(-c2nn3ccccc3c2-c2ccnc3cc(Cl)c(Cl)cc23)n1"
test_value = 6.41


1: Cc1cccc(-c2nn3ccccc3c2-c2ccnc3cc(C(=O)NCCN(C)C)ccc23)n1
2: Cc1cccc(-c2nn3ccccc3c2-c2ccnc3cc(OCCCN(C)C)ccc23)n1
Data request: Between 1 and 2 , which one has the lower reported pIC50 value? Answer with the label corresponding to your selection.
Data returned: 1
